Target: T1, human IL-17A (human, UniProt Q16552 24-155)
T1 construct: Recombinant; biotinylated in the ELISA; also called hIL-17; hIL17A
T1 sequence (Q16552 24-155): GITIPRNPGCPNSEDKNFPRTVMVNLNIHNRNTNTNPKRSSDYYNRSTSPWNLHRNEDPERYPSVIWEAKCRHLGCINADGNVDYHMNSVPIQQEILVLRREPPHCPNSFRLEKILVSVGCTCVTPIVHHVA
Test: hIL17A ELISA
measured-attribute: pEC50
Please treat pEC50 as minus the base-10 logarithm of the molar concentration.

>>> measurement("IL17-h5C5.2 (antibody, V domains shown, IgG; constant regions not specified) VH: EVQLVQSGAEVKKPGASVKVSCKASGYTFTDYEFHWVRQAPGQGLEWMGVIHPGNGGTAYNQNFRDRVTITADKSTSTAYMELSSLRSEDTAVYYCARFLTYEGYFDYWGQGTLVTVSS VL: NIVMTQTPKFLLVSPGDRVTITCKASQSVSIDVGWFQQKPGQSPKLLIYHASNRYTGVPDRFTGSGYGTDFTFTVNTVQAEDLAVYFCQQDYSSPYTFGGGTKLELKR")
8.92

Query binder follows.
input: Which pEC50 value is on record for IL17-h10F7.5 (antibody, V domains shown, IgG; constant regions not specified) VH: EVQLVQSGAEVKKPGSSVKVSCKASGYTFTDYEIHWVRQAPGQGLEWMGVNDPESGGTFYNQKFDGRVTITADKSTSTAYMELSSLRSEDTAVYYCARYYRYESFYGMDYWGQGTTVTVSS VL: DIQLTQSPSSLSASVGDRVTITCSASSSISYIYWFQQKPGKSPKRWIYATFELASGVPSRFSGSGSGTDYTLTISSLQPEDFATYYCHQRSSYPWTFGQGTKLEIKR ?
output: 10.22

Cited source for all entries: patent US20140348834A1
